# exon inclusion enrichment index listing for each entry below
B1: mRNA-splicing (parent)
chain: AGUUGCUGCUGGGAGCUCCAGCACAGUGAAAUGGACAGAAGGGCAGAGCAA

# Variants of: B1
# experiment: exon inclusion enrichment index; higher = more inclusion; WT1 exon 5 minigene, HEK293
Just the number, please, no unit after it.

Below, 3 variants whose answers are already recorded.
> print(dat)
                 variant.name                    readout.label  reported
1  G5A U7C G8A U10C C16A U17A  exon inclusion enrichment index      2.05
2  G5C C6G U7C U10C A39C A40U  exon inclusion enrichment index      1.72
3       C6A U7C C9A U10C A30G  exon inclusion enrichment index      3.61

For this variant ( G5C C6G U7C U10C G34C ), measured exon inclusion enrichment index is 1.79

For this variant ( U10G G11A ), measured exon inclusion enrichment index is 2.34
